- Assay procedure: activity coefficient (dimensionless); of the first substance listed, at infinite dilution; xn = mol fraction of the nth substance listed
- Test settings: 302.55 K; Liquid; Chromatography; x1 = 0
// boundary case: activity coefficient equal to 3 maps to not satisfied; strictly smaller maps to satisfied

Compound	Discrete label
CCCCO [butan-1-ol] + CCCC[N+](C)(C)C.O=S(=O)([N-]S(=O)(=O)C(F)(F)F)C(F)(F)F	not satisfied
CC(C)(C)O [2-methylpropan-2-ol] + CCCC[N+](C)(C)C.O=S(=O)([N-]S(=O)(=O)C(F)(F)F)C(F)(F)F	satisfied
CC(C)O [propan-2-ol] + CCCC[N+](C)(C)C.O=S(=O)([N-]S(=O)(=O)C(F)(F)F)C(F)(F)F	satisfied
CCC(C)(C)O [2-methylbutan-2-ol] + CCCC[N+](C)(C)C.O=S(=O)([N-]S(=O)(=O)C(F)(F)F)C(F)(F)F	satisfied

Now consider the entry below.
Q: Strictly below 3 in activity coefficient? CC(C)CO [2-methyl-1-propanol] + CCCC[N+](C)(C)C.O=S(=O)([N-]S(=O)(=O)C(F)(F)F)C(F)(F)F
Result: not satisfied

---

For each record, write down the corresponding activity coefficient.
- Assay procedure: activity coefficient (dimensionless); of the first substance listed, at infinite dilution; xn = mol fraction of the nth substance listed
- Test settings: 322.85 K; Liquid; Chromatography; x1 = 0
Give bare numbers.

Molecule	Measured property	Number
CCO [ethanol] + CCCC[N+](C)(C)C.O=S(=O)([N-]S(=O)(=O)C(F)(F)F)C(F)(F)F	activity coefficient	1.73
CC(C)O [propan-2-ol] + CCCC[N+](C)(C)C.O=S(=O)([N-]S(=O)(=O)C(F)(F)F)C(F)(F)F	activity coefficient	1.89
CCCCC [pentane] + CCCC[N+](C)(C)C.O=S(=O)([N-]S(=O)(=O)C(F)(F)F)C(F)(F)F	activity coefficient	13.9

Count: 4. Required value per item: activity coefficient.
1. C1CCCCC1 [cyclohexane] + CCCC[N+](C)(C)C.O=S(=O)([N-]S(=O)(=O)C(F)(F)F)C(F)(F)F
2. CCc1ccccc1 [ethylbenzene] + CCCC[N+](C)(C)C.O=S(=O)([N-]S(=O)(=O)C(F)(F)F)C(F)(F)F
3. CCCCCC [hexane] + CCCC[N+](C)(C)C.O=S(=O)([N-]S(=O)(=O)C(F)(F)F)C(F)(F)F
4. CC(C)CO [2-methyl-1-propanol] + CCCC[N+](C)(C)C.O=S(=O)([N-]S(=O)(=O)C(F)(F)F)C(F)(F)F

Result:
[3.6, 2.79, 17.6, 3.13]

---

- Assay procedure: activity coefficient (dimensionless); of the first substance listed, at infinite dilution; xn = mol fraction of the nth substance listed
- Test settings: 312.15 K; Liquid; Chromatography; x1 = 0
Would you kindly list activity coefficient for each of these compounds?
Answers are plain numbers.

For orientation, consider the following solved cases.
Compound	activity coefficient
CCCO [propan-1-ol] + CCCC[N+](C)(C)C.O=S(=O)([N-]S(=O)(=O)C(F)(F)F)C(F)(F)F	2.43
CC(C)CO [2-methyl-1-propanol] + CCCC[N+](C)(C)C.O=S(=O)([N-]S(=O)(=O)C(F)(F)F)C(F)(F)F	3.52
CCCCCCCC [octane] + CCCC[N+](C)(C)C.O=S(=O)([N-]S(=O)(=O)C(F)(F)F)C(F)(F)F	41

Moving on to the next compound.
Q: Entry CCC(C)(C)O [2-methylbutan-2-ol] + CCCC[N+](C)(C)C.O=S(=O)([N-]S(=O)(=O)C(F)(F)F)C(F)(F)F : reported activity coefficient = ?
Result: 2.32
